These entries and their values trace back to patent US20220396624A1.

# systemUnderTest: T1, fusion protein of the extracellular region of human PD-L1 and human IgG1-FC (human, UniProt Q9NZQ7 19-238)
# T1 construct: PD-L1 is put first by convention; also called fusion protein PD-L1 (hFC tag)
# T1 sequence (Q9NZQ7 19-238): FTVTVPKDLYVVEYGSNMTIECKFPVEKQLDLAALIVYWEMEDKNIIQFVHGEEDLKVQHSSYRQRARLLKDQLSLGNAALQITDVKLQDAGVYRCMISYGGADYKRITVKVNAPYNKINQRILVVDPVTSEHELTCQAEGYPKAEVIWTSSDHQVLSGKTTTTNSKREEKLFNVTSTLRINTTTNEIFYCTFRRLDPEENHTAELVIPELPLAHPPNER
# measurementProtocol: FACS blocking of PD-L1-hFc binding to 293T-h-PD1 cells, hybridoma supernatant
The entries below come with measured IC50 values attached.
Respond numerically; units are µg/mL and should not be typed.

Answered examples (2):
# binder, IC50, µg/mL
data = [
    ("murine antibody 28B1 (A5), subclone 28B1-2 (antibody, V domains shown, Mouse hybridoma antibody; Only variable domains printed) VH: QVQLKQSGAELVKPGASVMLSCTASAFNIDDTYIHWVKQRPEQGLEWIGRIDPANGNTDYDPECQGKATITTDMSSNTAYLQLSSLTSEDTAVYFCARGLRLPGLVYWGRGTLVTVSA VL: DIQMTQTTSSLSASLGDRVTISCRASQDISNYLNWYQQKPDGTVKLLIYYTSILYSGVPSRFSGSGSGTDYSLTINTLEEEDIATYFCQQGNTLPWTFGGGTKLEIIR", 2.31),
    ("murine antibody 8A2 (A8) (antibody, V domains shown, Mouse hybridoma antibody (subclone 8A2-2); Only variable domains printed; also called 8A2-2) VH: QVQLKQSGPGLVAPSQSLSITCTVSGFSLTGYGVNWVRQPPGKGLEWLGKIWGDGITDYNSALKSRLSISKDNSKSQVFLKMNSLQTDDTARYYCARDVMDYWGQGTSVTVSS VL: QIVLTQSPAIMSASPGEKVTMTCSASSSISYMHWYQQKPGTSPKRWIYDTSKLASGVPARFSGSESGTSYSLTISSMEAEDAATYYCHHRSPYPTFGAGTKLELK", 5.17),
]

Value lookup for IC50; key = murine antibody 14A7 (A1) (antibody, V domains shown, Mouse hybridoma antibody (subclone 14A7-4), tested as culture supernatant or purified from it; Only the variable domains are printed; also called 14A7-4) VH: QVQLKQSGAELVRPGTSVKMSCKATEYTFTNNWIAWVKQRPGHGLEWVGDIHPGGGFTNYNEKFKVKATLTADTSSSTAYMQLRSLTSEDSAIYYCAGSKTRDYDAWFAYWGQGTLVTVSA VL: DIVMTQAPSSLAVSVGEKVTLNCKSSQSLLYTGNQKNYLAWYQQKPGQSPKLLIYWASTRESGVPDRFTGSGSGTDFTLTISNVKAEDLAVYFCQQYYTYRTFGGGTKLEIK 2.31

Value lookup for IC50; key = murine antibody 22B10 (A6) (antibody, V domains shown, Mouse hybridoma antibody (subclone 22B10-1); Only variable domains printed; also called 22B10-1) VH: QVQLKQSGAELVKPGASVELSCTASGFNIEDTYLHWVNQRPEQGLEWIGRIDPANGNTYYDPKFQGKATITTDTSSNTAYLQLSRLTSEDTAVYYCARGLRLPGFPYWGQGTLVTVSA VL: DIQMTQTPSSLSASLGDRVTISCRASQDISNYLSWYQQKPDGTVKLLIYYTSILHSGVPSRFSGSGSGTDYSLAISNLDQEDIATYFCQQGNTLPWTFGGGTKLEIKR 4.31
